# Measured target: T1, human common cytokine receptor γ-chain (IL-2Rγ) (human, UniProt P31785 23-262, limits assumed)
# T1 construct: Recombinant human IL-2Rγ protein, coated (ELISA) or amine-coupled to a CM5 chip (SPR); also called hu IL-2R; CD132
# T1 sequence: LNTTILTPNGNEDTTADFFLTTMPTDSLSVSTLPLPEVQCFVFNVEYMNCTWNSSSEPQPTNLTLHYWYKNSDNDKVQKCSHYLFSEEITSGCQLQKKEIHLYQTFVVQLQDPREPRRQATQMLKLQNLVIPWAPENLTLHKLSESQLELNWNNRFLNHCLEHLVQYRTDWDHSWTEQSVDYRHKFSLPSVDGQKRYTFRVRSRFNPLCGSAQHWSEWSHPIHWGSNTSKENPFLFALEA
# Assay procedure: P.E. binding ELISA
Reported PE binding ELISA OD values for the following binders.
Answer in OD450 nm, number only, no unit symbol.

| Binder | Units text | Value reported |
| --- | --- | --- |
| FJ1427_P035MP07F01 (VHH, tested as periplasmic extract; also called Clone nr) VHH: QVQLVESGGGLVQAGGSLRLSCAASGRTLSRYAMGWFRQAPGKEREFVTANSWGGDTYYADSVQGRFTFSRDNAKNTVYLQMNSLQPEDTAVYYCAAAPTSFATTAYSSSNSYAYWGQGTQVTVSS | OD450 nm | 0.556 |
| FJ1427_P035MP07B02 (VHH, tested as periplasmic extract; also called Clone nr) VHH: EVQLVESGGGLVQAGGSLRLSCAASGRALSRLAMGWFRQAPGKEREFVVASSWGDDTFYADSVKGRFTFSRDNAKNTVYLQMNSLQPGDTAVYYCAAAPTSFATTAYSSSNSYAYWGQGTQVTVSS | OD450 nm | 1.32 |
| FJ1427_P035MP07D01 (VHH, tested as periplasmic extract; also called Clone nr; 580) VHH: QVQLVESGGGLVQAGGSLRLSCAASGRTLSRYAMGWFRQAPGKEREFVAANSWGGDTYYTDSVEGRFTFSRDNAKNAVYLQMNSLQPGDTAVYYCAAAPTSFATTAYSSSNSYSYWGQGTQVTVSS | OD450 nm | 1.19 |
| FJ1427_P035MP07B06 (VHH, tested as periplasmic extract; also called Clone nr; 618) VHH: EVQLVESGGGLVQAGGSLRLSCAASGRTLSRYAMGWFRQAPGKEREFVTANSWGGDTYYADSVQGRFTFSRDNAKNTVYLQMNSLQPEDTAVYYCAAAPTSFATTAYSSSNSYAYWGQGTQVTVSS | OD450 nm | 0.902 |
| FJ1427_P035MP07H05 (VHH, tested as periplasmic extract; also called Clone nr) VHH: QVQLVESGGGLVQAGGSLRLSCAASGRTLSRYAMGWFRQAPGKEREFVAANSWGGDTYYTDSVEGRFTFSRDNAKNAVYLQMNSLQPGDTAVYYCAAAPTSFATTAYSSSNSYSYWGQGTQVTVSS | OD450 nm | 1.14 |

Note: attention shifts to another entry.
Lookup: Quote PE binding ELISA OD reported for FJ1427_P035MP07B07 (VHH, tested as periplasmic extract; also called Clone nr; 626) VHH: QVQLVESGGGLVQAGGSLRLSCAASGRSLSRYAMGWFRQAPGKEREFVAAISWGGDSFYTDSVEGRFTFSRDNAKNAVYLEMNDLQPEDTAVYYCAAAPTSFPTTAYSSSNSYSYWGRGTQVTVSS please.
Found: 0.29
